- tested-system: T1, EsCas13d, nuclease-dead (Eubacterium siraeum, UniProt B0MS50, R295A;H300A;R849A;H854A)
- T1 sequence: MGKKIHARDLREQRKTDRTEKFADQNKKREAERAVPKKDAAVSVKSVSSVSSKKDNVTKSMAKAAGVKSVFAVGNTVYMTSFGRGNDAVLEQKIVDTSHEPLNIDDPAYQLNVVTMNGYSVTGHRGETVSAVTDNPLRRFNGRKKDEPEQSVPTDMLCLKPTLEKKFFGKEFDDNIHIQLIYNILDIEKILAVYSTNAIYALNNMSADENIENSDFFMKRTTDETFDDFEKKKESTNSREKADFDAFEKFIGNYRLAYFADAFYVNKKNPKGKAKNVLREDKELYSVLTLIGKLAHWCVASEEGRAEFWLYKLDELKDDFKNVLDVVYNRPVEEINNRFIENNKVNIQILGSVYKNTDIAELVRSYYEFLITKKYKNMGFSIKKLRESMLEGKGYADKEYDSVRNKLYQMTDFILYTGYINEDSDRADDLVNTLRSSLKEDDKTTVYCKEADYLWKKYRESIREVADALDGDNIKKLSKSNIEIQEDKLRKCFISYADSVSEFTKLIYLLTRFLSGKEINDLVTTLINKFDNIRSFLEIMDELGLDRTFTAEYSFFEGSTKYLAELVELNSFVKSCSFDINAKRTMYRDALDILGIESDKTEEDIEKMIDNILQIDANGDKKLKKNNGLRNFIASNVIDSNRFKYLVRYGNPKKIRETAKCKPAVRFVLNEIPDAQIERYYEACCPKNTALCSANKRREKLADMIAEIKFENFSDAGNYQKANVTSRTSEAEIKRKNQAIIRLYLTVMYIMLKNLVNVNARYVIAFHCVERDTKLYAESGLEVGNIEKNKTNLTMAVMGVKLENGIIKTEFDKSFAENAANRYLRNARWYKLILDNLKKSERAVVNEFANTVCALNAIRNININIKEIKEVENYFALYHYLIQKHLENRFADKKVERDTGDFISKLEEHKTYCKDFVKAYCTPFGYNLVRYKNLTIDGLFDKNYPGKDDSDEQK
- method: crRNA (strand 1, pre-loaded); Mg2+; 40 mM Tris-HCl pH 7.5, 150 mM NaCl, 6 mM MgCl2, 1 mM DTT, 0.1% Tween-20, 0.2 mg/ml BSA; 25 C; 10 min per concentration, then washed
- condition-summary: tags: His6-TwinStrep-SUMO cleaved; N-terminal SNAP kept (SNAP-Surface 488); label: 3' end held by stalled T7 RNA polymerase
reported-endpoint: Kd (nM)
Lab book: enter the figure in nM, no units written.

target 2 MT 5'PFS GUU 3'PFS UAA (mixed) RNA 1: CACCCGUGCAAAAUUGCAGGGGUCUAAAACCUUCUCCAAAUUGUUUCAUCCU RNA 2: GGGAAUGGAUCCACAUCUACGAAUUCGUUAGGAUGAAACAAUUUGGAGAAGUAAAGAUCGGAAGAGCACACGU; 15.3
target 3 insA 3' of 7,insA 3' of 2 (mixed) RNA 1: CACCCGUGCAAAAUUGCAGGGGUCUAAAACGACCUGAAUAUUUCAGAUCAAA RNA 2: GGGAAUGGAUCCACAUCUACGAAUUCGUUUUUGAUCUGAAAUAUUACAGGUACUGCAGAUCGGAAGAGCACACGU; 51
target 1 insA 3' of 12,insU 3' of 12 (mixed) RNA 1: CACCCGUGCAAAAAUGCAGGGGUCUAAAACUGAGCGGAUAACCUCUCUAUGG RNA 2: GGGAAUGGAUCCACAUCUACGAAUUCGUACCAUAGAGAGGAUUUAUCCGCUCACCGAGAUCGGAAGAGCACACGU; 58

Here's the next entry for you.
Entry target 3 insG 3' of 5 (mixed) RNA 1: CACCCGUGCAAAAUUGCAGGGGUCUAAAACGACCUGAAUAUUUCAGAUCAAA RNA 2: GGGAAUGGAUCCACAUCUACGAAUUCGUUUUUGAUCUGAAAUAUUCAGGGUCUGCAGAUCGGAAGAGCACACGU ; Kd = 19.9
